# testedOn: HiBit-BRG1 fusion protein (Homo sapiens)
# Construct: expressed in transfected cells
# Sequence (P51532 whole entry, the tested form may be a part): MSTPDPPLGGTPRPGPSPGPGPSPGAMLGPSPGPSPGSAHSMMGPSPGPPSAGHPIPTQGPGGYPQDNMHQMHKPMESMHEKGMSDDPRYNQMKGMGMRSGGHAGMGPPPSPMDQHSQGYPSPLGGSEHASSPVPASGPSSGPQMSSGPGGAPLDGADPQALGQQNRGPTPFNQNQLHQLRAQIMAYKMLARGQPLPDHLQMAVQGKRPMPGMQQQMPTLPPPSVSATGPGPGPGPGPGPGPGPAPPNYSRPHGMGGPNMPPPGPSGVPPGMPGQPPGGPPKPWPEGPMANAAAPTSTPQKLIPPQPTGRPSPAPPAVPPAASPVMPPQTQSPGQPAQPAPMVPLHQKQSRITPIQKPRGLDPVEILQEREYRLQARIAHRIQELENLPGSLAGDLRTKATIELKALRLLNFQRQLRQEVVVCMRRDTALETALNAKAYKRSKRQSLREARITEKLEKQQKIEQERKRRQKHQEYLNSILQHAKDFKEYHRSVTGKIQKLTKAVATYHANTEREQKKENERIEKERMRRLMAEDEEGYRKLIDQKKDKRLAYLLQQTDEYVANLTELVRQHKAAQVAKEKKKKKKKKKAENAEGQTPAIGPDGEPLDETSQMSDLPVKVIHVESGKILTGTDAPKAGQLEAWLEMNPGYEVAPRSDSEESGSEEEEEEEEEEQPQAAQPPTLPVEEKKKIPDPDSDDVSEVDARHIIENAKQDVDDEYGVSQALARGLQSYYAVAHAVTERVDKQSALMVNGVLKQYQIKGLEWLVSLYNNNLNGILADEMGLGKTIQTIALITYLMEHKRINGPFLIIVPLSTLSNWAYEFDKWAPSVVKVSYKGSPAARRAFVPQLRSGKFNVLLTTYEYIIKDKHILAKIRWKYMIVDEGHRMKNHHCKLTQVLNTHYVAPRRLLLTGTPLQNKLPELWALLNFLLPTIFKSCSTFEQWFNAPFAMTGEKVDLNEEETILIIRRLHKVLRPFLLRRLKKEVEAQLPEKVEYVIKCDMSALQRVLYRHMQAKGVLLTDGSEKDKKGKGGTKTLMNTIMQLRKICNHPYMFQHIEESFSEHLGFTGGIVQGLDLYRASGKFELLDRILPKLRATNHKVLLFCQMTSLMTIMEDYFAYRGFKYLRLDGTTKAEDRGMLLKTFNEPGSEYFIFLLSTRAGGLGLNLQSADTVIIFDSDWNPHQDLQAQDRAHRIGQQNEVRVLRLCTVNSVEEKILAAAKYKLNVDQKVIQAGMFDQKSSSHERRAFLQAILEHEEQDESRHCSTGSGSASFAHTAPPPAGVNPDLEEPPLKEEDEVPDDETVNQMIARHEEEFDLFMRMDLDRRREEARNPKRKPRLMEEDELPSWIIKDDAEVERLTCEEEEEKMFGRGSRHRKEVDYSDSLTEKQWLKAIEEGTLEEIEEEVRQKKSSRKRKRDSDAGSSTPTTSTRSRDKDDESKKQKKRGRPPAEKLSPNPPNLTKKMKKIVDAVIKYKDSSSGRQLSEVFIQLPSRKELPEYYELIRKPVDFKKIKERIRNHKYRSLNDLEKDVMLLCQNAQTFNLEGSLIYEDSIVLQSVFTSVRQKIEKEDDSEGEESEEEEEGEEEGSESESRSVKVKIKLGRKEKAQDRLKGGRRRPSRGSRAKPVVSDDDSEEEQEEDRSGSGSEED
# experimentalProtocol: HiBiT-BRG1 cell-based degradation assay (Nano-Glo HiBiT Lytic Detection, 24 h)
# setupConditions: HeLa, HeLa cells expressing HiBit-BRG1 and LgBit, top dose 30 μM, read-out: BRG1 HiBit Degradation Maximum measured

molecule	Dmax
CS(=O)(=O)n1ccc(C(=O)NCC(=O)Nc2nc(-c3cccc(-c4ccnc(C5(C(=O)NCCNc6ccc7c(c6)CN(C6CCC(=O)NC6=O)C7=O)CC5)c4)c3)cs2)c1 (stereo not drawn)	> 75%
CS(=O)(=O)n1ccc(C(=O)N[C@@H](COCc2ccc(C(=O)NCCOCCOCCOCCNC(=O)COc3cccc4c3C(=O)N(C3CCC(=O)NC3=O)C4=O)cc2)C(=O)Nc2nc(-c3ccccc3)cs2)c1 (stereo partly drawn)	< 50%
Cc1ncsc1-c1ccc(CNC(=O)[C@@H]2C[C@@H](O)CN2C(=O)[C@@H](NC(=O)CCCCCCCCCCC(=O)NCCCC[C@H](NC(=O)c2ccn(S(C)(=O)=O)c2)C(=O)Nc2nc(-c3ccccc3)cs2)C(C)(C)C)cc1	< 50%
CC(C)(C(=O)NCCOCCOCCNc1cccc2c1C(=O)N(C1CCC(=O)NC1=O)C2=O)n1ccc(-c2cccc(-c3csc(NC(=O)CNC(=O)c4ccn(S(C)(=O)=O)c4)n3)c2)n1 (stereo not drawn)	< 50%
Cc1ncsc1-c1ccc(CNC(=O)[C@@H]2C[C@@H](O)CN2C(=O)[C@@H](NC(=O)CCCCCCCCCCC(=O)NCc2cccc(-c3cccc(-c4csc(NC(=O)CNC(=O)c5ccn(S(C)(=O)=O)c5)n4)c3)c2)C(C)(C)C)cc1	> 75%
CS(=O)(=O)n1ccc(C(=O)NCC(=O)Nc2nc(C3CCCN(C(=O)CCCCCCCOc4cccc5c4C(=O)N(C4CCC(=O)NC4=O)C5=O)C3)cs2)c1 (stereo not drawn)	< 50%
Cc1ncsc1-c1ccc(CNC(=O)[C@@H]2CC(O)CN2C(=O)[C@@H](NC(=O)COCCOCCOCCNC(=O)CN(C)c2cc(-c3cccc(-c4csc(NC(=O)CNC(=O)c5ccn(S(C)(=O)=O)c5)n4)c3)ccn2)C(C)(C)C)cc1 (stereo partly drawn)	< 50%
CS(=O)(=O)n1ccc(C(=O)N[C@@H](COCc2ccc(C(=O)NC3CCN(CCOc4ccc5c(c4)C(=O)N(C4CCC(=O)NC4=O)C5=O)CC3)cc2)C(=O)Nc2nc(-c3ccccc3)cs2)c1 (stereo partly drawn)	> 75%
CS(=O)(=O)n1ccc(C(=O)N[C@@H](COCc2ccc(C(=O)N3CCN(CC4CN(c5ccc6c(c5)C(=O)N(C5CCC(=O)NC5=O)C6=O)C4)CC3)cc2)C(=O)Nc2nc(-c3ccccc3)cs2)c1.O=CO (stereo partly drawn)	< 50%
CS(=O)(=O)n1ccc(C(=O)NCC(=O)Nc2nc(-c3cccc(-c4ccn(CC(=O)NCCOCCOCCNc5cccc6c5C(=O)N(C5CCC(=O)NC5=O)C6=O)n4)c3)cs2)c1 (stereo not drawn)	< 50%
CS(=O)(=O)n1ccc(C(=O)NCC(=O)Nc2nc(-c3cccc(-c4ccnc(OCCNC(=O)CCCOc5cccc6c5C(=O)N(C5CCC(=O)NC5=O)C6=O)c4)c3)cs2)c1 (stereo not drawn)	< 50%
CS(=O)(=O)n1ccc(C(=O)N[C@@H](CCOCCCC(=O)N2CCN(CC3CN(c4ccc5c(c4)C(=O)N(C4CCC(=O)NC4=O)C5=O)C3)CC2)C(=O)Nc2nc(-c3ccccc3)cs2)c1 (stereo partly drawn)	< 50%
Cc1ncsc1-c1ccc(CNC(=O)[C@@H]2C[C@@H](O)CN2C(=O)[C@@H](NC(=O)CN2CC3(CN(CC(=O)NCc4cccc(-c5cccc(-c6csc(NC(=O)CNC(=O)c7ccn(S(C)(=O)=O)c7)n6)c5)c4)C3)C2)C(C)(C)C)cc1.O=C(O)C(F)(F)F [Compound 166, trifluoroacetate]	< 50%
CS(=O)(=O)n1ccc(C(=O)N[C@@H](CCCCNC(=O)CCOCCOCCOc2ccc3c(c2)C(=O)N(C2CCC(=O)NC2=O)C3=O)C(=O)Nc2nc(-c3ccccc3)cs2)c1 (stereo partly drawn)	< 50%
CS(=O)(=O)n1ccc(C(=O)NCC(=O)Nc2nc(-c3cccc(-c4cccc(CNC(=O)CCCCCCOc5cccc6c5C(=O)N(C5CCC(=O)NC5=O)C6=O)c4)c3)cs2)c1 (stereo not drawn)	50 to 75%
CS(=O)(=O)n1ccc(C(=O)NCC(=O)Nc2nc(-c3cccc(-c4ccnc(C5(C(=O)NCC6CCN(CCOc7ccc8c(c7)C(=O)N(C7CCC(=O)NC7=O)C8=O)CC6)CC5)c4)c3)cs2)c1 (stereo not drawn)	> 75%
CS(=O)(=O)n1ccc(C(=O)NCC(=O)Nc2nc(-c3cccc(-c4ccnc(C5(C(=O)N6CC(Oc7ccc8c(c7)C(=O)N(C7CCC(=O)NC7=O)C8=O)C6)CC5)c4)c3)cs2)c1 (stereo not drawn)	< 50%
CS(=O)(=O)n1ccc(C(=O)NCC(=O)Nc2nc(-c3cccc(-c4cccc(CNC(=O)CCCCCCCCNc5ccc6c(c5)C(=O)N(C5CCC(=O)NC5=O)C6=O)c4)c3)cs2)c1 (stereo not drawn)	< 50%
